Catalogue of melting point readings, one per entry.

The following molecules have reported results that may help.
O=C(OCc1ccc([N+](=O)[O-])cc1)N1CCC(O)CC1	91.5 to 94 °C
CCOC(=O)N(c1ccc(Cl)cc1Cl)c1ccc(Cl)cc1-n1nc(C(=O)O)nc1CCl	186 °C
Cc1ccc(-c2c(NS(=O)(=O)c3ccc(C(C)(C)COC4CCCCO4)cc3)ncnc2OCCOc2ncc(Br)cn2)cc1 (stereo unspecified)	138 to 139 °C
CSc1ncc2ccc(=O)[nH]c2n1	270 to 271 °C
CCOC(=O)CC1CCc2c(sc3c(Cl)cccc23)C1 (stereo unspecified)	51 to 53 °C
CCOc1nc2c(N)nc3cccnc3c2n1CC1CCOCC1	197 to 200 °C
CC(C)(CC(O)(Cn1ccc(=O)c2ccccc21)C(F)(F)F)c1cc(F)ccc1OC(F)F (stereo unspecified)	150 to 155 °C
Cc1ccc(-c2cncc(OC3SCC(O)C(O)C3O)c2)cc1 (stereo unspecified)	228 °C
CC(C)Cn1c(CNC(=O)OC(C)(C)C)c(-c2cccs2)c2cc(C#N)ccc2c1=O	189 to 190 °C
Cn1c(-c2ccc(O)cc2)cc2ccc(O)cc21	200 to 204 °C

### Prompt Please give the measured melting point for this molecule: Cc1cc(C)cc(CCCn2c(=O)c3c(N4CCN(C)CC4)cc(Cl)cc3n(Cc3ccccc3)c2=O)c1
### Response 67 to 73 °C

### Prompt Same question for O=c1cc(N2CCOCC2)cc(-c2ccccc2)o1 please.
### Response 161 to 162 °C

### Prompt Same question for CC(=O)Nc1c(N(C)C)cnn(-c2ccccc2)c1=O please.
### Response 186 to 187 °C

###

Catalogue of melting point readings, one per entry.

COC(=O)c1ccc(-c2ccc(-c3ccccc3)c(-c3ccc4c(c3)SCCC4(C)C)c2)cc1	172 °C
Cc1nsnc1-c1cccnc1	55 to 57 °C
Cc1ccc(-c2cncn2-c2ccc(S(C)(=O)=O)cc2)cc1F	147 °C
Cc1ccc(N2CCCN(c3ccnc4sc(C(N)=O)c(N)c34)CC2)cc1[N+](=O)[O-]	114 to 117 °C
CCOC(=O)c1cnn(-c2c(Cl)cc(Cl)cc2Cl)c1O	228 °C

# ---- query molecule ----
### Prompt Please give the measured melting point for this molecule: COc1ccc(NN=C2CCCCC2=O)cc1
### Response 177 °C

###

Catalogue of melting point readings, one per entry.

The following molecules have reported results that may help.
CN1CCN(Cc2nnc(S)n2Cc2cc(F)cc(F)c2)CC1	200 to 201 °C
CC(=CC#Cc1ccccc1)C(=O)NCCCCCC(=O)NO	135 to 137 °C
Cc1csc(Nc2cc3ccccc3cn2)n1	212 to 215 °C
O=C(c1ccc(Cl)cc1)P1(=O)Oc2ccccc2-c2ccccc21 (stereo unspecified)	125 to 131 °C
C#Cc1cnn2c(C(F)F)cc(-c3ccc(Cl)c(C)c3)nc12	143 °C

### Prompt Please give the measured melting point for this molecule: C=C(CC(=O)c1ccc(C)cc1)C(=O)O
### Response 137 to 138 °C

### Prompt Same question for CC(=O)c1cc2ccccc2cc1C(=O)O please.
### Response 145 °C

### Prompt Same question for CCCCOc1ccc(/C=C/c2nc3c([nH]2)c(=O)n(CC)c(=O)n3CC)cc1 please.
### Response 258 to 261 °C

### Prompt Same question for CCN1CCN(c2c(F)c(N)c3c(=O)c(C(=O)O)cn(C4CC4)c3c2F)CC1 please.
### Response 236 to 237 °C

### Prompt Same question for O=C(Cc1ccccc1)N1CCCSC1=C[N+](=O)[O-] please.
### Response 121 to 122 °C

### Prompt Same question for O=c1ccc(C(c2ccccc2)c2ccc(Cl)cc2)c[nH]1 (stereo unspecified) please.
### Response 164 to 169 °C
